Exercise: state measured growth for each of the compounds provided.
System: M14 melanoma
assay.method.text: NCI-60 one-dose screen, 48 h (100 = growth as untreated, 0 = no growth, -100 = all killed)
experimental.parameters: 10 µM
Experimental: Growth inhibition of the M14 human tumor cell line is measured as a screen for anti-cancer activity. Cells are grown in 96 well plates and exposed to the test compound for 48 hours. Compounds are tested at a single concentration, which is 10^-5 M for most compounds. The reported endpoint is percent growth (GI% or GIPRCNT), where numbers from 0 - 100% represent growth inhibition, and numbers from -100% - 0 represent cell death. For example, a value of 40 represents 60% growth inhibition. […]
Compounds without any hit were thinned out: in the full panel of roughly 83,000, 20% have a hit.
Answer format: numeric, % implied, no suffix.

Can you share its growth? I mean this compound: C#CCNCCCN1C(=O)c2ccc3c4c(ccc(c24)C1=O)C(=O)N(CCCNCC#C)C3=O
-91

Can you share its growth? I mean this compound: COc1ccc(-c2cc(/C=C/C(=O)c3ccc(N)cc3)[nH]n2)cc1OC
84.4

Can you share its growth? I mean this compound: Cc1ccc(C2C=C(c3ccc(Cl)cc3)N=C3SC=CN32)c(Br)c1 (stereo not given)
94.4

Can you share its growth? I mean this compound: NCCNc1ccc2cc(-c3nc4ccccc4[nH]3)c(=O)oc2c1
104

Can you share its growth? I mean this compound: COC(=O)CCCCCCCCC(C)c1ccc(C(C)=O)cc1 (stereo not given)
121
